# Read-out: Hypoxia-inducible factor 1-alpha (Homo sapiens) (UniProt Q16665)
# Sequence (Q16665 whole entry, looked up): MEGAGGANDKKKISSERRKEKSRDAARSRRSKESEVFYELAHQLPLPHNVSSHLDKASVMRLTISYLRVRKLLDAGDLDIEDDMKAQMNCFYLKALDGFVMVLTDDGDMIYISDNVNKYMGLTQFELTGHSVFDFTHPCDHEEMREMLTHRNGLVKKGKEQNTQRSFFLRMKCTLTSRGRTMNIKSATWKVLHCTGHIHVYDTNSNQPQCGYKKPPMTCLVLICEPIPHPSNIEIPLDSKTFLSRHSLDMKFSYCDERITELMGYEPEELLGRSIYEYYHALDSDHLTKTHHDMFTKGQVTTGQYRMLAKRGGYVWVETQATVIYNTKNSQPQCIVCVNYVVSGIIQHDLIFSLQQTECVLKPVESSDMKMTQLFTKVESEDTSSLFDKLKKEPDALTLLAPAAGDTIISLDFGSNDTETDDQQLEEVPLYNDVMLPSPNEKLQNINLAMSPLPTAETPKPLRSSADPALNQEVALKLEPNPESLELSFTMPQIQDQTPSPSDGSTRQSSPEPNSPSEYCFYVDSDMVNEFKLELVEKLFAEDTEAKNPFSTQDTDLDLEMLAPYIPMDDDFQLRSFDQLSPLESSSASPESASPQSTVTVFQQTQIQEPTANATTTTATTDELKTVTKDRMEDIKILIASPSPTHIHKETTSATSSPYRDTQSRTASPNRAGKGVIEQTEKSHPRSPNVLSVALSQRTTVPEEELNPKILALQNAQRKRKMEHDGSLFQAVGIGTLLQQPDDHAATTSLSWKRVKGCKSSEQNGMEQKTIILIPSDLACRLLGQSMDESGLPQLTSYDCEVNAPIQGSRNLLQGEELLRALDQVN
# Assay Info: LTEA_HepaRG_HIF1A: Life Technologies and Expression Analysis (LTEA) Assay for Hypoxia-inducible factor 1 (HIF1A) Trancription factor using HepaRG (AID 2283503);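 note: HIF1A transcript by TaqMan qRT-PCR normalized to ACTB GAPDH and POLR2A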
# Measurement Context: mRNA level, 48 h; actives raise or lower the signal
Activity calls are given as the source filed them. Rule for the calls: active = hit-call score of the fitted dose curve at least 0.9, where 1 is the maximum; inactive = score below 0.9.
Your reply should match one of these outcome classes. active, inactive

INSERT INTO assay_data (compound, class_assignment) VALUES
  ('COC(=O)CCCCC(=O)OC', 'inactive'),
  ('CC(=O)NC1(c2cccc(F)c2)CCN(CC[C@@]2(c3ccc(Cl)c(Cl)c3)CN(c3ccccc3)C(=O)CO2)CC1', 'inactive');

Task: Please state the recorded outcome for this compound: COCC(C)O (centres undefined)
Output: inactive

Task: Please state the recorded outcome for this compound: CCCCCCCC(=O)O
Output: inactive

###

# Read-out: Urokinase-type plasminogen activator receptor (uPAR), PLAUR (gene 5329)
# Assay Info: BSK_4H_uPAR: BioMAP Diversity Plus: 4H Assay for Urokinase-type plasminogen activator receptor (uPAR) Biomarker Activity (AID 2283030)
# Measurement Context: primary human endothelial cells (HUVEC); actives raise or lower the signal
Active and inactive are the calls of the source. How the source made its calls: active means hit-call score of the fitted dose curve at least 0.9, where 1 is the maximum; inactive means score below 0.9.
Your reply should match one of these outcome classes. t = active, f = inactive

Reference set (5 entries):
INSERT INTO assay_data (chem_smiles, class_assignment) VALUES
  ('NC(=O)N(O)[C@@H]1C=C[C@H](Oc2cccc(Oc3ccc(F)cc3)c2)C1', 'f'),
  ('C=C(C)C(=O)OCCC(F)(F)C(F)(F)C(F)(F)C(F)(F)C(F)(F)C(F)(F)F', 'f'),
  ('CCCCCCCCCCCCN1CCCC1=O', 't'),
  ('CCCCCCCCC(=O)O', 'f'),
  ('CN1CCC[C@H]1c1cccnc1', 'f');

Now let's try a different one.
Task: Please state the recorded outcome for this compound: CCCCCCCCCCCCCCCS(=O)(=O)Oc1ccccc1
Output: f

###

# Assay Info: BSK_LPS_SRB: Viability Assessment in the BioMAP Diversity Plus: LPS Assay (AID 2283079);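 note: total protein by sulforhodamine B absorbance as a cytotoxicity measure; measured one day after compound addition; fitted in both directions against DMSO so loss or gain of signal counts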
# Measurement Context: primary human HUVEC with PBMC
# Protocol: BSK_LPS is a cell-based, multiplexed-readout assay that uses umbilical vein endothelium and peripheral blood mononuclear cells, a human vascular primary cell co-culture, with measurements taken at 24 hours after chemical dosing in a 96-well plate.BSK_LPS_SRB is an assay component measured in the BSK_LPS assay. It measures 0.1% sulforhodamine related to cell death using Sulforhodamine staining technology.Data from the assay component BSK_LPS_SRB was analyzed into 1 assay endpoint. […]
Activity calls are given as the source filed them. How the source made its calls: active means hit-call score of the fitted dose curve at least 0.9, where 1 is the maximum; inactive means score below 0.9.
Your reply should match one of these outcome classes. active, inactive

Reference set (3 entries):
INSERT INTO measurements (compound, class_assignment) VALUES
  ('CN(C)C=O', 'inactive'),
  ('O=c1c(-c2ccc(O)cc2)coc2cc(O)ccc12', 'inactive'),
  ('C[C@@H]1C[C@H]2[C@@H]3CCC4=CC(=O)C=C[C@]4(C)[C@@]3(F)[C@@H](O)C[C@]2(C)[C@@]1(O)C(=O)COP(=O)(O)O', 'inactive');

Task: Please state the recorded outcome for this compound: Cc1cc(CCN2CCN(c3nsc4ccccc34)CC2)cc2c1NC(=O)CC2(C)C
Output: active

Task: Please state the recorded outcome for this compound: CCc1nn(C2CCCCC2)c2cc(C3(C#N)CCC(C(=O)O)CC3)ccc12 (stereo not given)
Output: active

// data source = PubChem BioAssay (EPA / NIEHS)
